experiment: TLR3 IRF3 reporter activation blockers – cell-based, poly I:C stimulus, luciferase, 10K MLSCN set, primary screen (AID 602277)
test-parameters: HEK293-TLR3 RL24 IRF3 luciferase reporter, at 10 µM, hits give high values
Entries and their inhibition
reported-metric: inhibition (%)

| compound | recorded-measurement |
| --- | --- |
| c1ccc(CSCc2cn3ccsc3n2)cc1 | -132 |
| COc1cc2c(C#N)c(N3CCN(c4ccccc4OC)CC3)nc(N)c2c(N)n1 | -36.5 |
| CCCC1C(C#N)=C(N)Oc2n[nH]c(C(C)(C)C)c21 (stereo unspecified) | 21.8 |
| Cc1ccc(NC(=O)COS(=O)c2ccc(C)cc2)cc1 (stereo unspecified) | -1.39 |
| Cc1ccc(S(=O)(=O)CCc2nnc(NC(=O)c3cnccn3)s2)cc1 | 22.5 |
| O=C(O)c1cccc(CN2C(=O)SC(Nc3ccccc3)C2=O)c1 (stereo unspecified) | 18.9 |

---

target-or-test-system: Alpha-2C adrenergic receptor (Homo sapiens)
experiment: compounds altering alpha2C-coupled GIRK flux – cell-based, HEK293 alpha2C/GIRK1/2, thallium flux, primary screen (AID 624);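 note: slope of fluorescence ratio to pre-addition baseline per second over 15 to 24 s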
test-parameters: thallium flux BTC fluorescence, at 10 µM, actives lie on both sides
reported-metric: slope

| compound | target-or-test-system | reported-metric | recorded-measurement |
| --- | --- | --- | --- |
| Cc1cnc(C(=O)Nc2ccc(N3CCN(C(=O)OC(C)(C)C)CC3)cc2)cn1 | Alpha-2C adrenergic receptor (Homo sapiens) | slope | 0.00617 |
| Cc1cccc(N2CCN(Cc3c(C)n(C)n(-c4ccccc4)c3=O)CC2)c1C | Alpha-2C adrenergic receptor (Homo sapiens) | slope | 0.00748 |
| CC(=O)NC(C)C(=O)OCC(=O)Nc1ccc(Br)cc1 (stereo unspecified) | Alpha-2C adrenergic receptor (Homo sapiens) | slope | 0.00449 |
| O=C(CSc1nnc(Cn2c(=O)sc3ccccc32)n1-c1ccccc1)Nc1nccs1 | Alpha-2C adrenergic receptor (Homo sapiens) | slope | 0.00712 |
| CC(C)[C@H](NC(=O)NCc1ccc(Cl)cc1)C(=O)O | Alpha-2C adrenergic receptor (Homo sapiens) | slope | 0.00337 |
| CCn1c(SCC(=O)Nc2ccc3c(c2)OCO3)nnc1-c1cnccn1 | Alpha-2C adrenergic receptor (Homo sapiens) | slope | 0.00469 |

---

target-or-test-system: Voltage-gated potassium channel subunit beta-2 (Rattus norvegicus)
experiment: enhancers of rat Kvbeta2 NADPH turnover – biochemical, NADPH fluorescence, primary screen (AID 623);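 note: fluorescence intensity change per second fitted from 20 to 320 s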
test-parameters: Recombinant KvBeta, NADPH fluorescence decrease slope, 10 min; at 10 µM; hits give low values
reported-metric: NADPH fluorescence slope

| structure-as-smiles | reported-metric | recorded-measurement |
| --- | --- | --- |
| CCN1CCN(C(=O)c2cn(CCOC)c(=O)c3c2c2ccccc2n3C)CC1 | NADPH fluorescence slope | -6.9e-06 |
| Cn1c2c(c(=O)n(C)c1=O)CN(CCCN1CCOCC1)CN2 | NADPH fluorescence slope | 2.4e-05 |
| O=C(O)c1cccc(COCC(F)(F)C(F)F)c1 | NADPH fluorescence slope | -4.4e-05 |
| COc1ccccc1NC1=C(C)C(=O)CC1 | NADPH fluorescence slope | -3e-05 |
| COc1ccc(-c2cc(C(=O)NCc3ccc(Cl)cc3)no2)cc1OC | NADPH fluorescence slope | -1.3e-05 |
| Cc1nc(-c2ccccc2)sc1C(N)=O | NADPH fluorescence slope | 1.6e-05 |

Origin of the recorded values: PubChem BioAssay
